- EXPERIMENTAL_SYSTEM: M4 muscarinic receptor (Homo sapiens)
- Construct: expressed in transfected cells; host or cells: CHO cells (M4-CHO, under puromycin, zeocin and blasticidin selection)
- ASSAY_TEXT: Functional mobilization of intracellular calcium (FLIPR, Fluo-3), M4-CHO cells
- Assay type: cell-based
- APPLIED_CONDITIONS: compound nos. 1-454; 100% efficacy is the maximum response obtained with the Carbachol control; read-out: M4 Efficacy
Recorded Emax values for a group of molecules are listed next.

MOLECULE: CN(C)C(=O)N1CC2(CCN(C3CCN(C(=O)OCCF)CC3)CC2)c2cc(F)ccc21
Emax: 55 to 70%

MOLECULE: CC(=O)N1CC2(CCN(CC3CCCCC3)CC2)c2cc(F)ccc21
Emax: < 55%

MOLECULE: CCOC(=O)N1CCC(N2CCC3(CC2)CN(C(C)=O)c2ccc(-c4ccc(C(F)(F)F)cc4)cc23)CC1
Emax: 55 to 70%

MOLECULE: CC(=O)N[C@@H]1CC2(CCN([C@@H]3C[C@@H]4CC[C@@H]3C4)CC2)c2ccccc21
Emax: 55 to 70%

MOLECULE: CCOC(=O)N1C2CCC1CC(N1CCC3(CC1)CN(C(=O)OC1CCC1)c1ccc(F)cc13)C2 (stereo not shown)
Emax: > 70%

MOLECULE: CC(C)OC(=O)N1C2CCC1CC(N1CCC3(CC1)CN(C(=O)N(C)C)c1ccc(F)cc13)C2 (stereo not shown)
Emax: < 55%

MOLECULE: CC(=O)N1CC2(CCN(C3CC4CCC(C4)C3)CC2)c2cc(F)ccc21 (stereo not shown)
Emax: > 70%

MOLECULE: CCOC(=O)N1CCC(N2CCC3(CC2)CN(C(=O)OCC(C)C)c2ccc(F)cc23)CC1
Emax: > 70%

MOLECULE: CCOC(=O)N1C2CCC1CC(N1CCC3(CC1)CN(C(=O)c1cc(C)oc1C)c1ccc(F)cc13)C2 (stereo not shown)
Emax: 55 to 70%

MOLECULE: CCOC(=O)N1CCC(N2CCC3(CC2)CN(CC(C)=O)c2ccc(F)cc23)CC1
Emax: 55 to 70%

MOLECULE: CCOC(=O)N1C2CCC1CC(N1CCC3(CC1)CN(C(=O)OC)c1ccc(F)cc13)C2 (stereo not shown)
Emax: > 70%

MOLECULE: CCOC(=O)N1CCC(N2CCC3(CC2)CN(C(C)=O)c2ccc(-c4cccnc4)cc23)CC1
Emax: 55 to 70%

MOLECULE: CC(=O)N1CC2(CCN(CC3CCN(C(=O)OC(C)C)CC3)CC2)c2cc(F)ccc21
Emax: < 55%

MOLECULE: CCOC(=O)N1C2CCC1CC(N1CCC3(CC1)CN(C(=O)N(C)C)c1ccc(F)cc13)C2 (stereo not shown)
Emax: < 55%

MOLECULE: CC(=O)N1CC2(CCN(C3CCN(C(=O)O[C@@H]4CCOC4)CC3)CC2)c2cc(C)ccc21
Emax: < 55%

MOLECULE: CCOC(=O)N1C2CCC1CC(N1CCC3(CC1)CN(C(=O)NC(C)C)c1ccc(F)cc13)C2 (stereo not shown)
Emax: 55 to 70%

----------
- EXPERIMENTAL_SYSTEM: M4 muscarinic receptor (Homo sapiens, UniProt P08173)
- Construct: expressed in transfected cells; host or cells: CHO cells (M4-CHO, under puromycin, zeocin and blasticidin selection)
- Sequence (P08173 1-479): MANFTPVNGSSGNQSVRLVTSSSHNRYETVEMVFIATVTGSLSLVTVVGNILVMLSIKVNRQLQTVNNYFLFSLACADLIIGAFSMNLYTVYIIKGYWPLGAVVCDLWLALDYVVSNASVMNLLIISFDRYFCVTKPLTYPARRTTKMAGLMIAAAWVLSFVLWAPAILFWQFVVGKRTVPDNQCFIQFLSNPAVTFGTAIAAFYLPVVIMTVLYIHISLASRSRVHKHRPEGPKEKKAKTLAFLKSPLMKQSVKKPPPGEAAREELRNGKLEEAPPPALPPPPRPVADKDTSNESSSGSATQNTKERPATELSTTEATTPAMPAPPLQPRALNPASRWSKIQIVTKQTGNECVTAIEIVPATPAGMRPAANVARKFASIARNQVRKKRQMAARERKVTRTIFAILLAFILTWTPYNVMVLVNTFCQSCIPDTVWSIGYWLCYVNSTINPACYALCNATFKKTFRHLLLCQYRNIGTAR
- ASSAY_TEXT: Functional mobilization of intracellular calcium (FLIPR, Fluo-3), M4-CHO cells
- Assay type: cell-based
- APPLIED_CONDITIONS: compound nos. 1-454; 100% efficacy is the maximum response obtained with the Carbachol control; read-out: M4 Efficacy

COMPOUND: CCOC(=O)N1CCC(N2CCC3(CC2)CN(C(=O)N(CC)CC)c2ccc(F)cc23)CC1 [compound 223]
EXPERIMENTAL_SYSTEM: M4 muscarinic receptor (Homo sapiens, UniProt P08173)
Emax: < 55%
--
COMPOUND: Cc1ccc2c(c1)C1(CCN(CC3CC4C=CC3C4)CC1)CN2 (stereo not shown) [compound 3]
EXPERIMENTAL_SYSTEM: M4 muscarinic receptor (Homo sapiens, UniProt P08173)
Emax: 55 to 70%
--
COMPOUND: Clc1ccc2c(c1)C1(CCN(C3C[C@@H]4CCC3C4)CC1)CO2 (stereo in doubt) [compound 1]
EXPERIMENTAL_SYSTEM: M4 muscarinic receptor (Homo sapiens, UniProt P08173)
Emax: > 70%
--
COMPOUND: O=C(OC1CCC1)N1C2CCC1CC(N1CCC3(CC1)COc1ccc(F)cc13)C2 (stereo not shown) [compound 123]
EXPERIMENTAL_SYSTEM: M4 muscarinic receptor (Homo sapiens, UniProt P08173)
Emax: < 55%
--
COMPOUND: CCOC(=O)N1C2CCC1CC(N1CCC3(CC1)CN(C(=O)C(C)C)c1ccc(F)cc13)C2 (stereo not shown) [compound 390]
EXPERIMENTAL_SYSTEM: M4 muscarinic receptor (Homo sapiens, UniProt P08173)
Emax: < 55%
--
COMPOUND: CN(C)C(=O)N1CC2(CCN(C3CCN(c4cccc(F)c4)CC3)CC2)c2cc(F)ccc21 [compound 438]
EXPERIMENTAL_SYSTEM: M4 muscarinic receptor (Homo sapiens, UniProt P08173)
Emax: 55 to 70%
--
COMPOUND: CCOC(=O)N1CCC(CN2CCC3(CC2)C(=O)Nc2ccccc23)CC1 [compound 319]
EXPERIMENTAL_SYSTEM: M4 muscarinic receptor (Homo sapiens, UniProt P08173)
Emax: < 55%
--
COMPOUND: CCOC(=O)N1CCC(N2CCC3(CC2)CN(C(C)=O)c2ccc(-c4ccc(C)cc4)cc23)CC1 [compound 58]
EXPERIMENTAL_SYSTEM: M4 muscarinic receptor (Homo sapiens, UniProt P08173)
Emax: 55 to 70%
--
COMPOUND: O=C(O[C@H]1CCOC1)N1C2CCC1CC(N1CCC3(CC1)C(=O)Nc1ccccc13)C2 (stereo partly shown) [compound 301]
EXPERIMENTAL_SYSTEM: M4 muscarinic receptor (Homo sapiens, UniProt P08173)
Emax: < 55%
--
COMPOUND: COc1ccccc1N1CCC(N2CCC3(CC2)CN(C(=O)N(C)C)c2ccc(F)cc23)CC1 [compound 440]
EXPERIMENTAL_SYSTEM: M4 muscarinic receptor (Homo sapiens, UniProt P08173)
Emax: 55 to 70%
--
COMPOUND: CC(=O)NC1CC2(CCN(CC3CC4C=CC3C4)CC2)c2ccccc21 (stereo not shown) [compound 180]
EXPERIMENTAL_SYSTEM: M4 muscarinic receptor (Homo sapiens, UniProt P08173)
Emax: 55 to 70%
--
COMPOUND: CC(=O)N1CC2(CCN(C3CC[C@@H]4CC[C@@H]3C4)CC2)c2cc(F)ccc21 (stereo partly shown) [compound 251]
EXPERIMENTAL_SYSTEM: M4 muscarinic receptor (Homo sapiens, UniProt P08173)
Emax: 55 to 70%
--
COMPOUND: CC(=O)N1CC2(CCN(C3CC4CCC3C4)CC2)c2cc(C)ccc21 (stereo not shown) [compound 138]
EXPERIMENTAL_SYSTEM: M4 muscarinic receptor (Homo sapiens, UniProt P08173)
Emax: 55 to 70%
--
COMPOUND: O=C(C1CC1)N1CC2(CCN(C3CC4CCC(C3)N4C(=O)O[C@@H]3CCOC3)CC2)c2cc(F)ccc21 (stereo partly shown) [compound 87]
EXPERIMENTAL_SYSTEM: M4 muscarinic receptor (Homo sapiens, UniProt P08173)
Emax: < 55%
--
COMPOUND: CC#CCOC(=O)N1CCC(N2CCC3(CC2)CN(C(=O)N(C)C)c2ccc(F)cc23)CC1 [compound 353]
EXPERIMENTAL_SYSTEM: M4 muscarinic receptor (Homo sapiens, UniProt P08173)
Emax: 55 to 70%
--
COMPOUND: CCOC(=O)N1CCC(N2CCC3(CC2)CN(C(=O)OCCF)c2ccc(F)cc23)CC1 [compound 370]
EXPERIMENTAL_SYSTEM: M4 muscarinic receptor (Homo sapiens, UniProt P08173)
Emax: > 70%
